Assay: Pharmacokinetics in male CD1 mice
Assay type: in vivo
Conditions: mouse, plasma; PO, 20 mg/kg, male CD1 mice
RECORDED_METRIC: AUC (ng·h/mL)
Answers are plain numbers, in ng·h/mL.

Kindly note the recorded AUC for O=C(CCCOc1ccc(I)cc1)NN1CCCOC1=O [Y-31] , which is 1100

* * *

Tested on: P. aeruginosa PAO1 biofilms
Experiment: Biofilm quantification, crystal violet assay
Type: cell-based, Pseudomonas aeruginosa
Conditions: Pseudomonas aeruginosa, PAO1; concentration 40.625 (unit not given in Table S1; μM in method), 20 h; read-out: Inhibition ratio of biofilm
Assign inhibition at 40.625 µM to each entry below.
One number for each entry, in %.

These solved cases illustrate the format of a correct answer.
INSERT INTO measurements (compound, experimental_system, recorded_metric, unit, observed) VALUES
  ('O=C(CCCOc1ccc2ccccc2c1)NN1CCOC1=O [Y-29]', 'P. aeruginosa PAO1 biofilms', 'inhibition at 40.625 µM', '%', 32.7),
  ('O=C(CCCOc1ccc(C(F)(F)F)cc1)NN1CCOC1=O [Y-25]', 'P. aeruginosa PAO1 biofilms', 'inhibition at 40.625 µM', '%', 32.2),
  ('CCCCCCCCCC(=O)N[C@H]1CCOC1=O [C10-HSL, reference compound]', 'P. aeruginosa PAO1 biofilms', 'inhibition at 40.625 µM', '%', 2.25),
  ('O=C(CCCSc1ccc(Br)cc1)NN1CCOC1=O [Y-39]', 'P. aeruginosa PAO1 biofilms', 'inhibition at 40.625 µM', '%', 23.4),
  ('O=C(CCCOc1cccc2ccccc12)NN1CCOC1=O [Y-37]', 'P. aeruginosa PAO1 biofilms', 'inhibition at 40.625 µM', '%', 35.1);

Give inhibition at 40.625 µM for each of the items listed below.
1. O=C(CCCOc1cnc(Br)cn1)NN1CCOC1=O [Y-15]
2. O=C(CCCOc1ccc(I)cc1)NN1CCOC1=O [Y-26]
3. O=C(CCCOc1ccc(I)cc1)NN1CCCOC1=O [Y-31]

A.
27
33.5
40.4

* * *

Assay: Pharmacokinetics in male CD1 mice
Type: in vivo
Settings: mouse, plasma; IV, 5 mg/kg, male CD1 mice
RECORDED_METRIC: Cmax (µg/mL)
Give bare numbers, in µg/mL.

The molecule identified as O=C(CCCOc1ccc(I)cc1)NN1CCCOC1=O registered its Cmax at 3.29

* * *

Could you please report measured IC50 for the items listed next?
System: C. violaceum CV026 QS
Test: Half-maximal inhibitory concentration against C. violaceum CV026 QS (suppression of violacein production)
Assay type: cell-based
Conditions: Chromobacterium violaceum; C6-HSL-induced violacein production, 12 h; mean ± SD of three independent tests; read-out: IC50, anti-CV026 QS activity
One number for each entry, in µM.

INSERT INTO measurements (compound, recorded_metric, observed) VALUES
  ('CCCCCCCCCC(=O)N[C@H]1CCOC1=O [C10-HSL, reference compound]', 'IC50', 0.15),
  ('O=C(CCCOc1ccc2ccncc2c1)NN1CCOC1=O', 'IC50', 199),
  ('O=C(CCCOc1cnc(Br)cn1)NN1CCOC1=O', 'IC50', 91.3),
  ('O=C(CCCOc1ccc(I)cc1)NN1CCCOC1=O', 'IC50', 91.5),
  ('O=C(CCCOc1ccc(I)cc1)NN1CCOC1=O', 'IC50', 27.6),
  ('O=C(CCCOc1ccccc1)NN1CCOC1=O', 'IC50', 232),
  ('O=C(CCCOc1ccc2ccccc2c1)NN1CCOC1=O', 'IC50', 26.1);

Please turn your attention to the following entry.
IC50 for O=C(CCCOc1ccc(Br)nc1)NN1CCOC1=O is 168
